# study target: folate receptor (Homo sapiens, UniProt P15328)
# Construct: using [^3H]folic acid and human KB cells in cell suspension; endogenous in cells
# Sequence (P15328 25-257): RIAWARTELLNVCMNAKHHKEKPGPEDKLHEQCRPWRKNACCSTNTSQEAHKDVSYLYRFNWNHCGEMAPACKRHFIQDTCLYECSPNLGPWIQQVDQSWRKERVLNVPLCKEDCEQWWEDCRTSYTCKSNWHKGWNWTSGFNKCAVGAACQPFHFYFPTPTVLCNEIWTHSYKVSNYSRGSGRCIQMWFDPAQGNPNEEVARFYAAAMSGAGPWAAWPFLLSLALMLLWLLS
# protocol notes: Displacement assay with [^3H]folic acid on FR-positive human KB cells
measured endpoint: pIC50
Note on pIC50: it is the negative log10 of concentration, concentration in mol/L.

What measured pIC50 is associated with Nc1nc2ncc(CNc3ccc(C(=O)N[C@@H](CCC(=O)NCCOCCOCCOCCn4cc(COCCOCCOCCF)nn4)C(=O)O)cc3)nc2c(=O)[nH]1 [Compound 6] on folate receptor (Homo sapiens, UniProt P15328)?
8.51
